Cited source for all entries: the supplement of paper PMC9732359

Recorded protein stability index, one value per entry.
Assay: protein stability index of a GFP-peptide fusion (yeast GPS) (PSI 1-4); higher = more stable; sorted into four equal gates, so the index is relative within each strain
Settings: pdr5∆
PARAMETER_MEASURED: protein stability index

{"QUERY_SEQUENCE": "ARNLIEDEDDGESEKSS [RPC53]", "NUMERIC_READOUT": 3.68}
{"QUERY_SEQUENCE": "TLKNRGLPLGIAEEKMW [YGR119C/NUP57]", "NUMERIC_READOUT": 1.7}
{"QUERY_SEQUENCE": "DRAIRKTCQWYSEHLKP [DIS3]", "NUMERIC_READOUT": 3.1}
{"QUERY_SEQUENCE": "MSVQDTKAVEFSMGHIR [MED4]", "NUMERIC_READOUT": 3.37}
{"QUERY_SEQUENCE": "RLASEPGIISITSLQDS [YMR129W/POM152]", "NUMERIC_READOUT": 2.34}
{"QUERY_SEQUENCE": "VPKHMLDKLDEILYYQI [AAR2]", "NUMERIC_READOUT": 3}
{"QUERY_SEQUENCE": "HGVLQGTSQNYGTATAD [MED1]", "NUMERIC_READOUT": 3.13}
{"QUERY_SEQUENCE": "YIDEMYNHNDGGDGRDY [RRI1]", "NUMERIC_READOUT": 3.26}
{"QUERY_SEQUENCE": "SLVALGIDPQDLKKLNL [CDC53]", "NUMERIC_READOUT": 2.72}
{"QUERY_SEQUENCE": "ASRSQLEKGEIELSDGS [YJL039C/NUP192]", "NUMERIC_READOUT": 3.02}
{"QUERY_SEQUENCE": "PSTSITLAERQQLAYDL [RPN9]", "NUMERIC_READOUT": 3.09}
{"QUERY_SEQUENCE": "IPYGPDFDNIEFKKIPR [SEC65]", "NUMERIC_READOUT": 3.1}
{"QUERY_SEQUENCE": "FEASCMEGQKLDDPVLN [YJR042W/NUP85]", "NUMERIC_READOUT": 1.76}
{"QUERY_SEQUENCE": "KAVKLRKSYKNQIADLS [ROX3]", "NUMERIC_READOUT": 2.85}
{"QUERY_SEQUENCE": "GRVTFIPLNRLSLDSDV [SMC3]", "NUMERIC_READOUT": 2.9}
{"QUERY_SEQUENCE": "NTAFGNSNPTSNVFGSN [YJL041W/NSP1]", "NUMERIC_READOUT": 3.6}
{"QUERY_SEQUENCE": "KTQQNEKSENGENDDDT [RPN3]", "NUMERIC_READOUT": 3.41}
{"QUERY_SEQUENCE": "RSLATAVATPKAEVTQL [COR1]", "NUMERIC_READOUT": 3.09}
{"QUERY_SEQUENCE": "AQGKEFGVTKARWPAKS [RPL17A]", "NUMERIC_READOUT": 3.49}
{"QUERY_SEQUENCE": "DLLRSQLTSLEKDCSLR [YIL149C/MLP2]", "NUMERIC_READOUT": 3.05}
{"QUERY_SEQUENCE": "SPDSTVNRSVVVSAVGE [YAR002W/NUP60]", "NUMERIC_READOUT": 2.91}
{"QUERY_SEQUENCE": "RESLIMLLEEQLEYKRG [MED7]", "NUMERIC_READOUT": 2.77}
{"QUERY_SEQUENCE": "KSLLLNTLNIDNTARVI [BRN1]", "NUMERIC_READOUT": 2.48}
{"QUERY_SEQUENCE": "VAASIIPFPDHNQSPRN [RPB2]", "NUMERIC_READOUT": 2.21}
{"QUERY_SEQUENCE": "KELQYDNEQNLESDFVT [PRE2]", "NUMERIC_READOUT": 3.16}
{"QUERY_SEQUENCE": "APTLSQTYINQELGFCE [SSN2]", "NUMERIC_READOUT": 2.81}
{"QUERY_SEQUENCE": "GESTVESEKLVTPEDVM [RPC82]", "NUMERIC_READOUT": 3.25}
{"QUERY_SEQUENCE": "DTFRWVGKKSAPEKDIW [RPO31]", "NUMERIC_READOUT": 2.88}
{"QUERY_SEQUENCE": "INKMVGNRYLEKRLNLR [RPL21A]", "NUMERIC_READOUT": 2.8}
{"QUERY_SEQUENCE": "MTMLTPNYLHLVSSYLN [YML103C/NUP188]", "NUMERIC_READOUT": 1.66}
{"QUERY_SEQUENCE": "HPIRVLMASVILDSLPS [YDL116W/NUP84]", "NUMERIC_READOUT": 1.52}
{"QUERY_SEQUENCE": "QDSILIIYPRSQTTLVQ [ARP9]", "NUMERIC_READOUT": 1.81}
{"QUERY_SEQUENCE": "MSLSVAEKSYLYDSLAS [RRP42]", "NUMERIC_READOUT": 1.64}
{"QUERY_SEQUENCE": "QYTKDEQFYTKDIIDPK [RPN2]", "NUMERIC_READOUT": 3.24}
{"QUERY_SEQUENCE": "YASKINRAEGPEELARI [RGR1]", "NUMERIC_READOUT": 3.26}
{"QUERY_SEQUENCE": "QRKTVNSDDILSLHENY [POP1]", "NUMERIC_READOUT": 2.65}
{"QUERY_SEQUENCE": "ITSFGFGQKGGQAIVVH [FAS2]", "NUMERIC_READOUT": 1.44}
{"QUERY_SEQUENCE": "IGDKFASRHGQKGTIGI [RPB2]", "NUMERIC_READOUT": 1.96}
{"QUERY_SEQUENCE": "AMSETLSKVSLLTPDIG [PRE8]", "NUMERIC_READOUT": 3.19}
{"QUERY_SEQUENCE": "YVPTRNTFNYDVKISND [RPN4]", "NUMERIC_READOUT": 2.3}
{"QUERY_SEQUENCE": "NPPYSQCIVYPNCLFIL [SOH1]", "NUMERIC_READOUT": 2.06}
{"QUERY_SEQUENCE": "AIDHLKAELEKQKSWVP [YIL149C/MLP2]", "NUMERIC_READOUT": 2.83}
{"QUERY_SEQUENCE": "EGNTVLEKGNNPSVKQG [SWP82]", "NUMERIC_READOUT": 3.12}
{"QUERY_SEQUENCE": "FMEAQGAGIQIIMQADL [FAS2]", "NUMERIC_READOUT": 2.33}
{"QUERY_SEQUENCE": "SVERGRKRAHSLVSTQS [REC8]", "NUMERIC_READOUT": 3.12}
{"QUERY_SEQUENCE": "ALDTNGTSATTETLTSK [SIR4]", "NUMERIC_READOUT": 2.19}
{"QUERY_SEQUENCE": "CESCSTILCTPTGGKAK [RPS27A]", "NUMERIC_READOUT": 2.32}
{"QUERY_SEQUENCE": "SPAGKYKRQKSSLLYTY [ESC2]", "NUMERIC_READOUT": 1.39}
{"QUERY_SEQUENCE": "NAEAKGLDATKLYVSHI [RPL17A]", "NUMERIC_READOUT": 3.13}
{"QUERY_SEQUENCE": "GIKATNGVVIATEKKSS [PRE8]", "NUMERIC_READOUT": 2.89}
{"QUERY_SEQUENCE": "VFLYFEDNAGVIANPKG [RPL23A]", "NUMERIC_READOUT": 1.96}
{"QUERY_SEQUENCE": "SKSENPVLSTIAFLVGL [SWI3]", "NUMERIC_READOUT": 2.54}
{"QUERY_SEQUENCE": "MKPSDNISTNTNIHEPQ [SSN2]", "NUMERIC_READOUT": 3.08}
{"QUERY_SEQUENCE": "EQILQWVTEVLGNDIPH [BRR2]", "NUMERIC_READOUT": 3.31}
{"QUERY_SEQUENCE": "RILAMCVKNHGQSSSIQ [YCS4]", "NUMERIC_READOUT": 1.79}
{"QUERY_SEQUENCE": "ATSTNPAKSASARGSYL [RPL17A]", "NUMERIC_READOUT": 2.59}
{"QUERY_SEQUENCE": "GYMQKPVYATIGVETGS [PRP28]", "NUMERIC_READOUT": 2.23}
{"QUERY_SEQUENCE": "KKLNKNKKLIKKLSKKY [RPL1A]", "NUMERIC_READOUT": 3.43}
{"QUERY_SEQUENCE": "LALETVLIKMVKMLRDN [SIR3]", "NUMERIC_READOUT": 2.06}
